Attribute: MTS assay result, run 4
# System: SW1990 pancreatic cancer cells
# assay-method-text: MTS assay of SW1990 cultures, single 50 μM dose
# Assay type: cell-based, human
# reported-conditions: SW1990, 50 μM, 48 hours, run 4
# Experimental: SW1990 pancreatic cancer cells […] were cultured in complete DMEM media containing 10% fetal bovine serum (FBS) and 1% penicillin-streptomycin, and 1% L-glutamine. BxPc-3 pancreatic cancer cells were cultured in complete RPMI media containing 10% fetal bovine serum (FBS), and 1% penicillin-streptomycin, 1% HEPES buffer, 1% sodium pyruvate and 1% L-glutamine. […] Cell viability was measured using MTS assay at preselect times of 24, 48, or 72 hours after treatment.
property-name: MTS assay result, run 4

> print(dat)
                                   compound  result.number
1  CC(C)=CCC/C(C)=C/CC/C(C)=C/CC[C@]1(C)CCc2cc(O)c(C)c(C)c2O1          0.123
2  CC(C)=CCC/C(C)=C/CC/C(C)=C/CC[C@]1(C)CCc2cc(O)cc(C)c2O1           0.12
3   CC(C)=CCC/C(C)=C/CC/C(C)=C/CC/C(C)=C/CO          0.128
4  Cc1c(C)c2c(c(C)c1OC(=O)CCC(=O)O)CC[C@@](C)(CCC[C@H](C)CCC[C@H](C)CCCC(C)C)O2 [TS, tocopherol succinate]          0.135
